The measurements presented in this section are drawn from ChEMBL document CHEMBL1201862.

system: Malme-3M; assay: NCI tumour cell line growth inhibition, 48 h
Activity calls are given as the source filed them. Rule as the data show it: active = GI50 up to about 1.1 µM and inactive = higher.
We begin with a simple list: items and their reported GI50.

Solved entries:
compound	GI50
Cc1nc(O)nc(N(CCO)/N=C/c2ccc(Cl)cc2)c1C(=O)Nc1ccc(Cl)cc1	26.1 µM (inactive)
Cc1c2c(nc3ccccc13)C(=O)c1cccnc1C2=O	1.29 µM (inactive)
Cc1ccc(NC(=O)C(=O)C2C(=O)N(c3ccccc3)N=C2N)cc1C (stereo not given)	> 100 µM (inactive)
CCC(=O)Nc1ncnc2ncn(C(=O)CC)c12	> 100 µM (inactive)
COc1cc(/C=C/C(=O)O)ccc1C(=O)O/C=C/c1ccccc1	> 100 µM (inactive)

Need GI50 of `CCOc1ccccc1Nc1ccc(N)cc1S(=O)(=O)O` , thanks.
> 100 µM (inactive)

Need GI50 of CC1=NN(c2cc(Cl)c(S(=O)(=O)O)cc2Cl)C2(C1)C(Cl)C(=O)N2c1nc2ccccc2s1 (stereo not given) , thanks.
> 100 µM (inactive)

Need GI50 of `CN(C)/C=C/C=C(/C=N/S(=O)(=O)C(F)(F)F)C1C=CN(S(=O)(=O)C(F)(F)F)C=C1` , thanks.
32 µM (inactive)

Need GI50 of `Cn1c(-c2cccs2)cc(-c2ccsc2)c1-c1cccs1` , thanks.
> 100 µM (inactive)

Need GI50 of `COc1cccc(/N=N/C(=N/NC(=O)c2ccc(C)cc2)c2ccc(N(CCC#N)CCC#N)cc2OC)c1` , thanks.
> 100 µM (inactive)

Need GI50 of `c1ccc(/N=C2\c3ccccc3C3=NCCCN32)cc1` , thanks.
62.8 µM (inactive)

Need GI50 of `C=CCN(N=O)C(=O)ON1C(=O)CCC1=O` , thanks.
> 100 µM (inactive)

Need GI50 of `O=c1c(Cc2ccccc2)c(O)cc2n1CCC2` , thanks.
> 100 µM (inactive)

Need GI50 of `Cc1nc(C)c(N2CCN(CN)CC2)c(O)n1` , thanks.
> 100 µM (inactive)

Need GI50 of COc1ccc(C2C3=C(COC3=O)Oc3cc4c(cc32)OCO4)cc1 (stereo not given) , thanks.
56 µM (inactive)

Need GI50 of `COc1ccc(/C=N/c2nc3cc4sc(/N=C/c5ccc(OC)cc5)nc4cc3s2)cc1` , thanks.
> 54 µM (inactive)

Need GI50 of `Cn1cnc(N2CCCC2)c(C#N)c1=O` , thanks.
> 100 µM (inactive)

Need GI50 of CCN(CC)CCC1(C2CCCCC2)CCC(=O)NC1=O (stereo not given) , thanks.
> 100 µM (inactive)

Need GI50 of `Nc1ccc(/N=N/c2ccccc2)cc1` , thanks.
75.9 µM (inactive)

Need GI50 of `N#CCCN(CCC#N)c1ccc(/C=C2\N=C(c3ccccc3)N(NC(N)=S)C2=O)cc1` , thanks.
> 100 µM (inactive)

====

We begin with a simple list: items and their reported GI50.
tested on: SK-OV-3; test: NCI tumour cell line growth inhibition, 48 h
Calls of active or inactive are those of the source. No stated cut-off is given here; in the data, active = GI50 up to about 1.1 µM and inactive = higher.

molecule	reported.endpoint	result
O=C(NCCOCCO)c1ccc(O)cc1	GI50	> 100 µM (inactive)

Need GI50 of COc1cc(C2c3cccc4cccc(c34)C3CCC(=O)N32)cc(OC)c1O (stereo not drawn) , thanks.
> 50 µM (inactive)

Need GI50 of `Cc1cccc(C)c1NC(=O)C(=O)CC(=O)c1sc(Nc2c(C)cccc2C)nc1C` , thanks.
> 100 µM (inactive)
